# EC50 (nM), cAMP assay per entry
- target.or.test.system: human GLP-1 receptor (GLP-1R), expressed on CHO-K1 cells (human, UniProt P43220 24-463)
- method.summary: cell-based or functional assay
Numbered stars: 1 amine (or outer) side, 2 acyl side, 3 side chain; on linkers, the order of the positions; unused ones are H or OH. Square brackets hold non-standard residues; d marks the D form. Side chains are listed from the residue outwards. Ends that are not written are not given here. C18 = C18 fatty acid (C16-C22 fatty acids conjugated via γGlu/8-amino-3,6-dioxaoctanoic acid spacers); γGlu = O=C(O)[C@H](CCC(=O)[*:2])N[*:1]; AEEA = NCCOCCOCC(=O)O; Aib = CC(C)(N)C(=O)O; MAL = maleimide
Report as a plain number; the unit nM is understood.

>  <binder>
Y[Aib]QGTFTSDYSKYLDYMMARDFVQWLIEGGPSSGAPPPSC-NH2 (not fully specified (residue 40)) [Peptide No. 5-1A]

>  <property.name>
EC50 (nM), cAMP assay

>  <readout.value>
0.269

$$$$

Look up EC50 (nM), cAMP assay for this binder: H[Aib]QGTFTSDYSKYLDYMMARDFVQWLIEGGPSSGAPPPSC([MAL-AEEA-AEEA-γGlu-C18])-NH2 [Peptide No. 5A (peptide 5, A type: lipid at Cys40)] 0.0967

Which EC50 (nM), cAMP assay value is on record for H[Aib]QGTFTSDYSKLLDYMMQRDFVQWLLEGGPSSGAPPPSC([MAL-AEEA-AEEA-γGlu-C18])-NH2 [Peptide No. 5-5A] ? 0.0747

Quick one: EC50 (nM), cAMP assay of Y[Aib]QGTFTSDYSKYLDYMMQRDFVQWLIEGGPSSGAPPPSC-NH2 (not fully specified (residue 40)) [Peptide No. 5-2A] ? 0.348
